src = patent US8623859B2

Molecular target: human B1 (Homo sapiens, UniProt P46663)
Sequence (P46663 whole entry): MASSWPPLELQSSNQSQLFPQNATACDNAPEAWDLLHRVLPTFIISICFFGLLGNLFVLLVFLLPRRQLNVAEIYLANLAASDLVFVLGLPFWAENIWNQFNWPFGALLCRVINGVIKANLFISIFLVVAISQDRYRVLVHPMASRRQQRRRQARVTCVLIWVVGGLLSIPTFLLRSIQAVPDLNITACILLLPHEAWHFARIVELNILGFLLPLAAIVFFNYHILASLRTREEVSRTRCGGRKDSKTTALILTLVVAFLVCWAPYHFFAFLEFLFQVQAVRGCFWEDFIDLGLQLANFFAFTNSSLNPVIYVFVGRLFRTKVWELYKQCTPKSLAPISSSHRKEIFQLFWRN
Test: Calcium flux assay for Bradykinin B1 antagonist, CHO-K1 cell line expressing human B1
Conditions: CHO-K1 cells expressing human B1, agonist Lys-(Des-Arg)-Bradykinin, read-out: Potency (IC50 value against human B1)
pIC50: −log10 of the molar value.
Catalogue of molecules with associated pIC50
property_measured: pIC50

molecule	recorded_result
COc1cc(C)c(S(=O)(=O)N(C)Cc2nnc(C(=O)N3CCN(CCCN(C)C)CC3)o2)c(C)c1 [Ex 279]	7.00 to 8.00
COc1cc(C)c(S(=O)(=O)N(Cc2nc(C(=O)N3CCN(c4cccnc4)CC3)co2)C2CC2)c(C)c1 [Ex 226]	6.00 to 7.00
COc1cc(C)c(S(=O)(=O)N(Cc2nc(C(=O)N(C)Cc3csc(CN4CCCC4)n3)co2)C2CC2)c(C)c1 [Ex 160]	7.00 to 8.00
COc1cc(C)c(S(=O)(=O)N(C)Cc2nc(C(=O)NCCc3ccc(C4=NCCN4)cc3)co2)c(C)c1 [Ex 67]	> 8.00
CN(Cc1ccc(C2=NCCN2)cc1)C(=O)c1coc(CN(C)S(=O)(=O)c2c(Cl)cc(Br)cc2Cl)c1 [Ex 19]	> 8.00
COc1cc(C)c(S(=O)(=O)N(Cc2nc(C(=O)N3CCN(Cc4c[nH]cn4)CC3)co2)C2CC2)c(C)c1 [Ex 249]	7.00 to 8.00
COc1cc(C)c(S(=O)(=O)N(Cc2nc(C(=O)N3CCN(Cc4cnc5ccccc5c4)CC3)co2)C2CC2)c(C)c1 [Ex 254]	> 8.00
